# test.target: Telomerase reverse transcriptase (Homo sapiens, UniProt O14746)
# Sequence (O14746 whole entry): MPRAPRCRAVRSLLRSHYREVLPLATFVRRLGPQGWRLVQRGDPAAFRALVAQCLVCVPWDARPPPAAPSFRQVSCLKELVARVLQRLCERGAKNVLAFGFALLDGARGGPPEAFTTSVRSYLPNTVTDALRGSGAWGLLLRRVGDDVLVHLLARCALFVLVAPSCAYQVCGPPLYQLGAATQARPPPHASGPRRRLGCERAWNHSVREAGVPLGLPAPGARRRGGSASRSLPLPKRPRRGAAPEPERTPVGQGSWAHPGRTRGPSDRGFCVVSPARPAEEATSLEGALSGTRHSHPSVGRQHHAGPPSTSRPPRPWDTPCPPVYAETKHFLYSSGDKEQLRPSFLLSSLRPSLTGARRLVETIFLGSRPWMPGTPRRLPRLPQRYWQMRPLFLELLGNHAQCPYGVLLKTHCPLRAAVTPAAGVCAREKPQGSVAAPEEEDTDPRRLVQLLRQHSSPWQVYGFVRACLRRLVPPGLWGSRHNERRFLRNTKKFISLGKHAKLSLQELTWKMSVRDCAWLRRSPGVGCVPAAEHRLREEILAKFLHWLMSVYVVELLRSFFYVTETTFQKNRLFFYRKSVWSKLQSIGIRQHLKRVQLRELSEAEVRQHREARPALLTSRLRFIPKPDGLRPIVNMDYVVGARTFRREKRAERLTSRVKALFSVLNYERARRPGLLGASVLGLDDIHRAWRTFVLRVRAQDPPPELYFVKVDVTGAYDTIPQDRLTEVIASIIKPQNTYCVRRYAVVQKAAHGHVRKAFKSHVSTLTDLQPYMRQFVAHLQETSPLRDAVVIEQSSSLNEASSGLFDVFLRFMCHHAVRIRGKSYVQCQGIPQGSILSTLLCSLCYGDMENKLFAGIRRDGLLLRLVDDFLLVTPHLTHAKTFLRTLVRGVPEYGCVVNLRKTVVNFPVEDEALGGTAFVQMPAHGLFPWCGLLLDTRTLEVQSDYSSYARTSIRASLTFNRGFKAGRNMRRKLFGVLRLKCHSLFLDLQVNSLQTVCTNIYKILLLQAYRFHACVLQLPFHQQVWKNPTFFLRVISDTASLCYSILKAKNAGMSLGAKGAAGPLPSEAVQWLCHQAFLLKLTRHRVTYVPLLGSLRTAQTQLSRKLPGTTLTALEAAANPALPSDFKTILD
# protocol: Inhibition of telomerase in human JR8 cells by TRAP assay
Recorded measurements of pEC50, one per entry
// field semantics: pEC50 = negative decimal log of concentration (mol/L)

Consider the worked cases shown below.
NCCCC[C@H](N)C(=O)NCC(=O)Nc1ccc2c(c1)C(=O)c1ccc(NC(=O)CNC(=O)[C@@H](N)CCCCN)cc1C2=O: 6.10
NCCCC[C@H](N)C(=O)NCCNC(=O)c1ccc2c(c1)C(=O)c1ccc(C(=O)NCCNC(=O)[C@@H](N)CCCCN)cc1C2=O: 6.10
C[C@H](N)C(=O)NCCC(=O)Nc1ccc2c(c1)C(=O)c1cc(NC(=O)CCNC(=O)[C@H](C)N)ccc1C2=O: 4.82
NCCC(=O)Nc1ccc2c(c1)C(=O)c1ccc(NC(=O)CCN)cc1C2=O: 5.90

Let's switch to this compound now.
Query: Param item = NCCCC[C@H](N)C(=O)NCCNC(=O)c1ccc2c(c1)C(=O)c1cc(C(=O)NCCNC(=O)[C@@H](N)CCCCN)ccc1C2=O ; retrieve measured pEC50.
Result: 5.52
